# measurement-target: Multidrug efflux pump subunit AcrB (Escherichia coli (strain K12)) (UniProt P31224)
# protocol: Inhibition of AcrB in multidrug-resistant Escherichia coli BW25113 assessed as potentiation of levofloxacin-induced antibacterial activity by measuring levofloxacin MIC at 32 ug/ml by checkerboard titration method (reference value: 0.06 ug/ml)
# experimental-context: dose 32.0 µg/ml
reported-property: MIC

{"molecule": "CC1(C)CCc2c(-c3nnco3)cc3c(OCc4ccc(F)cc4)cccc3c2O1", "MIC": "0.06 µg/mL"}
{"molecule": "CC1CN(C(=O)c2cc3c(OCc4c(Cl)cccc4Cl)cccc3c3c2CCC(C)(C)O3)CC(C)O1 (stereo not given)", "MIC": "0.03 µg/mL"}
{"molecule": "CC1(C)CCc2c(-c3nnco3)cc3c(OCc4ccc(C#N)cc4)cccc3c2O1", "MIC": "0.06 µg/mL"}
{"molecule": "CC(C)NCCOc1ccc2c(c1)OC(C)(C)CC2=O", "MIC": "0.03 µg/mL"}
{"molecule": "CC1(C)CCc2c(C(=O)N3CCOCC3)cc3c(OCc4ccccc4)cccc3c2O1", "MIC": "0.03 µg/mL"}

Report MIC for each item below.
1. C=CC(=O)Nc1ccc(COc2cccc3c4c(c(C(=O)N5CCOCC5)cc23)CCC(C)(C)O4)cc1
2. COc1cccc(COc2cccc3c4c(c(-c5nnco5)cc23)CCC(C)(C)O4)c1
3. Cc1ccccc1COc1cccc2c3c(c(-c4nnco4)cc12)CCC(C)(C)O3
4. CC1(C)CCc2c(Cn3cnnn3)cc3c(OCc4ccccc4)cccc3c2O1
5. C[C@@H](Cc1ccc(O)c(O)c1)[C@@H](C)Cc1ccc(O)c(O)c1

# output
["0.06 µg/mL", "0.06 µg/mL", "0.06 µg/mL", "0.06 µg/mL", "0.06 µg/mL"]

###

# measurement-target: Multidrug efflux pump subunit AcrB (Escherichia coli (strain K12)) (UniProt P31224)
# experimental-context: Escherichia coli BW25113; dose 128.0 µg/ml
reported-property: MIC (µg/mL)
Give bare numbers, in µg/mL.

The cases that follow already have their MIC on record.
{"molecular-string": "CC1(C)CCc2c(Cn3cnnn3)cc3c(OCc4ccccc4)cccc3c2O1", "MIC [µg/mL]": 16}
{"molecular-string": "CC1(C)CC(=O)c2ccc(OCC(=O)Nc3ccc(C#N)c(C(F)(F)F)c3)cc2O1", "MIC [µg/mL]": 16}
{"molecular-string": "CC1(C)CCc2c(-c3nnco3)cc3c(OCc4ccccc4)cccc3c2O1", "MIC [µg/mL]": 16}

# input Report MIC for C[C@@H](Cc1ccc(O)c(O)c1)[C@@H](C)Cc1ccc(O)c(O)c1
# output 16

###

# measurement-target: Multidrug efflux pump subunit AcrB (Escherichia coli (strain K12))
# protocol: Inhibition of AcrB in multidrug-resistant Escherichia coli BW25113 assessed as potentiation of erythromycin-induced antibacterial activity by measuring erythromycin MIC at 128 ug/ml by checkerboard titration method (reference value: 64 ug/ml)
# experimental-context: dose 128.0 µg/ml
reported-property: MIC (mg/L)
Answers are plain numbers, in mg/L.

The cases that follow already have their MIC on record.
{"molecular-string": "CC1(C)CCc2c(C(=O)N3CCOCC3)cc3c(OCc4ccc(C(F)(F)F)cc4)cccc3c2O1", "measurement-target": "Multidrug efflux pump subunit AcrB (Escherichia coli (strain K12))", "MIC, mg/L": 16}
{"molecular-string": "COc1cccc(COc2cccc3c4c(c(-c5nnco5)cc23)CCC(C)(C)O4)c1", "measurement-target": "Multidrug efflux pump subunit AcrB (Escherichia coli (strain K12))", "MIC, mg/L": 32}
{"molecular-string": "CC1(C)CCc2c(Cn3cnnn3)cc3c(OCc4ccc(OC(F)(F)F)cc4)cccc3c2O1", "measurement-target": "Multidrug efflux pump subunit AcrB (Escherichia coli (strain K12))", "MIC, mg/L": 32}
{"molecular-string": "COc1cccc(COc2cccc3c4c(c(C(=O)N5CCOCC5)cc23)CCC(C)(C)O4)c1", "measurement-target": "Multidrug efflux pump subunit AcrB (Escherichia coli (strain K12))", "MIC, mg/L": 16}
{"molecular-string": "CC1(C)CC(=O)c2ccc(OCCNC3CCCC3)cc2O1", "measurement-target": "Multidrug efflux pump subunit AcrB (Escherichia coli (strain K12))", "MIC, mg/L": 64}

Report MIC for each item below.
1. CC(C)NCCOc1ccc2c(c1)OC(C)(C)CC2=O
2. CC1(C)CCc2c(C(=O)O)cc3c(OCc4ccccc4)cccc3c2O1
3. CC1(C)CCc2c(-c3nnco3)cc3c(OCc4ccc([N+](=O)[O-])cc4)cccc3c2O1

# output
64
32
32

Report MIC for each item below.
1. CC1(C)CCc2c(-c3nnco3)cc3c(OCc4ccc(C#N)cc4)cccc3c2O1
2. Cc1ccccc1COc1cccc2c3c(c(-c4nnco4)cc12)CCC(C)(C)O3

# output
32
16

###

Would you kindly list MIC for each of these molecules?
# measurement-target: Multidrug efflux pump subunit AcrB (Escherichia coli (strain K12)) (UniProt P31224)
# Sequence (whole entry): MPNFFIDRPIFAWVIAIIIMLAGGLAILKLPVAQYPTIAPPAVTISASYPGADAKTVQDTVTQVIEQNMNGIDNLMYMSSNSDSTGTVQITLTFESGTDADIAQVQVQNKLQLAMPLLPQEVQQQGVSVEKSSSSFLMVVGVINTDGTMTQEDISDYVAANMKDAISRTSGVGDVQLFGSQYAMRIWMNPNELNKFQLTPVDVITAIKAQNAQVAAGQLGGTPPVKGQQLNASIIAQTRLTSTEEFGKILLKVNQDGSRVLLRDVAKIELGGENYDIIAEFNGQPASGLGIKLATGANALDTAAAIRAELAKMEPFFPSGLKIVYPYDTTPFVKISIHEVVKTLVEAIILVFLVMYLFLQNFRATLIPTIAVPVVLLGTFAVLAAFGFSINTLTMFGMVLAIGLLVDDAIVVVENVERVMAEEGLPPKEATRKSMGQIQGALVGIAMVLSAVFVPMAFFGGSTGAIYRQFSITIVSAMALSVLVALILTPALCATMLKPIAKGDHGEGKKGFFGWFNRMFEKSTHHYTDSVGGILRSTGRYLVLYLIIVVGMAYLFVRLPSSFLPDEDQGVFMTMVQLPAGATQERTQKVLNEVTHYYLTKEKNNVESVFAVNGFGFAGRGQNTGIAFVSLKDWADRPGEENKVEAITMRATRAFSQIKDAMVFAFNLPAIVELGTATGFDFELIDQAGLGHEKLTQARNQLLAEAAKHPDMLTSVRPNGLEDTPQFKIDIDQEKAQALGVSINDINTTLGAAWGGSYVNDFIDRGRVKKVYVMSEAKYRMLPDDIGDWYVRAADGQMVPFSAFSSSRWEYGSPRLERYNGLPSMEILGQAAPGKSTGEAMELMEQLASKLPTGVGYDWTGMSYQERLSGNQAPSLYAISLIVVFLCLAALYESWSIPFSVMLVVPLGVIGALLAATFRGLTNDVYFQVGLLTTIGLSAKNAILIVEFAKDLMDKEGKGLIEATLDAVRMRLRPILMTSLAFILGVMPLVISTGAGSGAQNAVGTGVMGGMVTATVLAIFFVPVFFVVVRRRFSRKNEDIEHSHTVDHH
# protocol: Inhibition of AcrB in multidrug-resistant Escherichia coli BW25113 assessed as potentiation of tetraphenylphosphonium-induced antibacterial activity by measuring tetraphenylphosphonium MIC at 8 ug/ml by checkerboard titration method (reference value: 1024 ug/ml)
# experimental-context: dose 8.0 µg/ml
One number for each entry, in mg/L.

The cases that follow already have their MIC on record.
{"molecular-string": "CC1(C)CCc2c(Cn3cnnn3)cc3c(OCc4ccccc4)cccc3c2O1", "scale-unit": "mg/L", "MIC": 1020}
{"molecular-string": "CC1(C)CCc2c(-c3nnco3)cc3c(OCc4ccc([N+](=O)[O-])cc4)cccc3c2O1", "scale-unit": "mg/L", "MIC": 1020}
{"molecular-string": "Cc1ccccc1COc1cccc2c3c(c(-c4nnco4)cc12)CCC(C)(C)O3", "scale-unit": "mg/L", "MIC": 512}
{"molecular-string": "CC1(C)CC(=O)c2ccc(OCC(=O)Nc3ccc(C#N)c(C(F)(F)F)c3)cc2O1", "scale-unit": "mg/L", "MIC": 1020}

Could you now look at the following molecule, please?
# input Report MIC for CC1(C)CCc2c(-c3nnco3)cc3c(OCc4ccc(C#N)cc4)cccc3c2O1
# output 1020

###

# measurement-target: Multidrug efflux pump subunit AcrB (Escherichia coli (strain K12))
# protocol: Inhibition of AcrB in multidrug-resistant Escherichia coli BW25113 assessed as potentiation of erythromycin-induced antibacterial activity by measuring erythromycin MIC at 128 ug/ml by checkerboard titration method (reference value: 64 ug/ml)
# experimental-context: dose 128.0 µg/ml
reported-property: MIC

{"molecular-string": "Cc1ccc(COc2cccc3c4c(c(-c5nnco5)cc23)CCC(C)(C)O4)cc1", "measurement-target": "Multidrug efflux pump subunit AcrB (Escherichia coli (strain K12))", "MIC": "8 µg/mL"}

Report MIC for each item below.
1. CNC(=O)c1ccc(COc2cccc3c4c(c(Cn5cnnn5)cc23)CCC(C)(C)O4)cc1
2. CC1(C)CCc2c(-c3nnco3)cc3c(OCc4ccccc4)cccc3c2O1

# output
["32 µg/mL", "16 µg/mL"]
